system: MIA PaCa-2; conditions: OFD1 knockdown: no (no doxycycline)
Measured endpoint: IC50 cell viability (µM)

CCN(CC)C(=O)/C(C#N)=C/c1cc(O)c(O)c([N+](=O)[O-])c1 = 3.57
Cc1c(N)nc(C(CC(N)=O)NCC(N)C(N)=O)nc1C(=O)NC(C(=O)NC(C)C(O)C(C)C(=O)NC(C(=O)NCCc1nc(-c2nc(C(=O)NCCC[S+](C)C)cs2)cs1)C(C)O)C(O[C@@H]1O[C@@H](CO)[C@@H](O)[C@H](O)[C@@H]1O[C@H]1O[C@H](CO)[C@@H](O)[C@H](OC(N)=O)[C@@H]1O)c1cnc[nH]1 (some centres undefined) = 1.84
Cc1ccc(-n2nc(C(C)(C)C)cc2NC(=O)Nc2ccc(OCCN3CCOCC3)c3ccccc23)cc1 = 77.2
CCCCCCNC(=O)n1cc(F)c(=O)[nH]c1=O = 2.36
Nc1nc(Cl)nc2c1ncn2[C@@H]1O[C@H](CO)[C@@H](O)[C@@H]1F = 0.55

(a) C#Cc1cccc(Nc2ncnc3cc(OC)c(OCCCCCCC(=O)NO)cc23)c1
(b) NC(=O)NO
-- ask // which entry reports the smaller IC50 cell viability, a or b ? Write the label of whichever entry you select.
-- reply a

Reference for the values: the supplement of paper PMC12325586
